# measuredTarget: T1, human CD300LB on primary human macrophages (human, UniProt A8K4G0 18-201)
# T1 sequence: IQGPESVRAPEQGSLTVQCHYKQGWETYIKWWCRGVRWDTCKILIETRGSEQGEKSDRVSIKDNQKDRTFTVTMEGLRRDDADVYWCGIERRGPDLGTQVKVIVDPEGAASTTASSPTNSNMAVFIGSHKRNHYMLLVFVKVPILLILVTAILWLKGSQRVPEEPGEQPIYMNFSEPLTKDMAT
# assay: flow cytometry, primary human macrophages donor 1275, 10 ug/mL antibody, isotype control subtracted
Provide the recorded gMFI for the entries that follow.

Name the reported gMFI value associated with the binder anti-CD300LB antibody CD-05 (antibody, V domains shown) VH: QVQLVQSGAEVKKPGASVKVSCKASGYTFSRYYINWVRQAPGQGLEWMGWINPNSGGTNYAQKFQGRVTMTRDTSTSTVYMELSSLRSEDTAVYYCTTDQLRFGKTGPYYGMDVWGQGTTVTVSS VL: DIQMTQSPSSLSASVGDRVTITCRASQNIGTYLNWYQQKPGKAPKLLIYAASSLQSGVPSRFSGSGSGTDFTLTISSLQPEDFATYYCQQSYSDTLTFGGGTKVEIK 61000 gMFI

For the binder anti-CD300LB antibody CD-06 (antibody, V domains shown) VH: QVQLVQSGAEVKKPGASVKVSCKASGYTFTTYAVHWVRQAPGQGLEWMGIVNPNSGGTNYAQKFQGRVTMTRDTSTSTVYMELSSLRSEDTAVYYCARDIVPMNNFYNYYYGMDVWGQGTTVTVSS VL: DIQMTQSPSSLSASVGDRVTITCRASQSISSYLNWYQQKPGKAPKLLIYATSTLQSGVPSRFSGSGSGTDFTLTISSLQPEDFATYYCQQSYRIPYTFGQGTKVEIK , what gMFI is on record? 26900 gMFI

For the binder anti-CD300LB antibody CD-07 (antibody, V domains shown) VH: QVQLVQSGAEVKKPGASVKVSCKASGYTFTNYRMHWVRQAPGQGLEWMGWINPNSGGTIYAQKFQGRVTMTRDTSTSTVYMELSSLRSEDTAVYYCARDLDYWGQGTLVTVSS VL: DIQMTQSPSSLSASVGDRVTITCQASQDISNYLNWYQQKPGKAPKLLIYGASSLQSGVPSRFSGSGSGTDFTLTISSLQPEDFATYYCQQSYSTPWTFGPGTKVEIK , what gMFI is on record? 2700 gMFI

Find the recorded gMFI belonging to anti-CD300LB antibody CD-09 (antibody, V domains shown) VH: QVQLVQSGAEVKKPGASVKVSCKASGYTFTTYAVHWVRQAPGQGLEWMGIINPNSGGTNYAQKFQGRVTMTRDTSTSTVYMELSSLRSEDTAVYYCARDIVPMNNFYNYYYGMDVWGQGTTVTVSS VL: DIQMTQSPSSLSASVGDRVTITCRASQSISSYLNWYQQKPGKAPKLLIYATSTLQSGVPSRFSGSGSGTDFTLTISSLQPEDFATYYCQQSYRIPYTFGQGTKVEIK and report it. 19700 gMFI
